test system: IGROV1 ovarian; assay: NCI-60 one-dose screen, 48 h; settings: 10 µM unless noted
This is part of a sample that, as a whole, favours compounds with a hit. Of some 83,000 tested, about 20% had one in any assay. Active and inactive are the calls of the source. Rule for the calls: active = growth percent below 10; inactive = the rest.
Allowed answers: 1 = active, 0 = inactive

Use these answered entries as a reference point.
Inquiry: # fetch the recorded call for "COc1ccc2c(c1)C(=O)/C(=C/c1cccnc1)CC2" here
Reply text: 0

Inquiry: Outcome? "O=C1c2ccccc2OC=C(c2ccccc2)N1CCCCNc1ccc(S(=O)(=O)Nc2ncccn2)cc1"
Reply text: 0

Inquiry: Name the outcome recorded for "Cc1cc(C)nc(SC2=C(Nc3cccc(Cl)c3C)C(=O)N(Cc3ccccc3)C2=O)n1" in the assay.
Reply text: 0

Inquiry: Please let me know the test result on file for CCN1CCC2(CC1)NC(=O)c1c(c3ccc(Cl)c(Cl)c3n1C)C2C#N (stereo not drawn) .
Reply text: 0

Inquiry: Returns: the outcome recorded for "NC(=O)c1cc(I)ccc1NC(=O)/C=C/c1ccccc1Cl" in this assay.
Reply text: 0

Others:
Inquiry: Given "COc1ccc(CN2c3ccccc3Sc3ccccc32)c(C(F)(F)F)c1" , state the outcome it received in this test.
Reply text: 0

Inquiry: Per the assay record, what outcome was assigned to "CC[C@H]1OC(=O)[C@H](C)[C@@H](O[C@H]2C[C@@](C)(OC)[C@@H](O)[C@H](C)O2)[C@H](C)[C@@H](O[C@@H]2O[C@H](C)C[C@H](N(C)C)[C@H]2O)[C@](C)(O)C[C@H](C)CN(C)[C@H](C)[C@@H](O)[C@]1(C)O" ?
Reply text: 0

Inquiry: In this assay, the call recorded for "CCc1c(Nc2ccccc2C)nc(N)[nH]c1=O" was what?
Reply text: 0

Inquiry: Which outcome did this test record for the compound "O=c1c2c3c(sc2nc(N/N=C/c2cn(-c4ccccc4)nc2-c2ccc(Cl)cc2)n1Cc1ccccc1)CCCC3" ?
Reply text: 0

Inquiry: Dear colleague, could you share the recorded outcome for "O=C1c2ccccc2C(=O)c2c(N=Nc3[nH]c(=S)[nH]c3O)cccc21" when you have a moment?
Reply text: 0

Inquiry: # lookup: test call for "Cc1nn(-c2ccc(F)cc2)c2ncnc(Oc3ccc(NC(=O)Nc4ccc(Cl)c(C(F)(F)F)c4)cc3)c12"
Reply text: 0

Inquiry: Which result was noted for this compound in the test: OCC(O)c1nc2ccc3[nH]ncc3c2c2c1CCCC2 (stereo not drawn)
Reply text: 0

Inquiry: I would be grateful if you could indicate the recorded call for "COc1cccc(-c2nc(SCC(=O)Nc3ccc(C(=O)/C=C/c4ccc(OC)c(OC)c4)cc3)[nH]c(=O)c2C#N)c1" .
Reply text: 0

Inquiry: What call does the record list for "COc1ccc(-c2cc(NC(=O)Nc3ccc4ncsc4c3)no2)cc1" ?
Reply text: 0

Inquiry: I'd appreciate the recorded outcome for "FC(F)(F)c1ccc(-c2cn3nc(-c4c[nH]c5ccc(Br)cc45)sc3n2)cc1" from this test.
Reply text: 0

Inquiry: For this compound, state the assay outcome: "CCCOc1cc2ccccc2cc1C(=O)Nc1nc(NC)c2c(ccc3nccc32)[nH]1"
Reply text: 1

Inquiry: Query: recorded result category for "C=C1C(=O)O[C@H]2[C@H]1CC/C(C=Nc1ccc(C(F)(F)F)cc1N)=C\CC[C@@]1(C)O[C@@H]21" in this test
Reply text: 0

Inquiry: Hey, what did the test say about "O=C(N(c1ccccc1)c1ccccc1)n1ccc2nc(Cl)nc(Cl)c21" ?
Reply text: 0
